test: NCI Yeast Anticancer Drug Screen. Data for the sgs1 mgt1 strain (AID 161);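 also: 0% = growth of cultures given vehicle only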; conditions: S. cerevisiae sgs1 mgt1 strain, at 50.0 µM, hits give high values
Compounds without any hit were thinned out: in the full panel of roughly 79,000, 15% have a hit.
Experimental Endpoint: growth inhibition (%)
Number only, in %; omit the unit.

Recorded growth inhibition, per entry:
Compound	Experimental Endpoint	Display Unit	Endpoint Value
COc1cc(C2C3=C(COC3=O)Oc3cc4c(cc32)OCO4)cc(OC)c1OC (stereo unspecified)	growth inhibition	%	-8.35
CC(=O)N=c1ccc2nc(N)nn(O)c-2c1	growth inhibition	%	-10.4
N=C(N)SCC(O)C(O)CSC(=N)N (stereo unspecified)	growth inhibition	%	-0.95
c1ccc2c(-c3c[nH]c4ccccc34)c[nH]c2c1	growth inhibition	%	-3.05
Cc1c(C(=O)CC(=O)C(=O)Nc2ccccc2C(F)(F)F)[n+](=O)c2ccccc2n1[O-]	growth inhibition	%	-9.4

Switching to the query record.
Query block: growth inhibition lookup needed for CC/C(C=O)=C\NC(=O)Nc1ccccc1 , thanks.
Result block: 0.8

----------
Test: NCI Yeast Anticancer Drug Screen. Data for the cln2 rad14 strain (AID 165);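 also: 0% = growth equal to vehicle treated cultures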
Conditions: S. cerevisiae cln2 rad14 strain, at 50.0 µM, hits give high values
Experimental: Growth inhibition of yeast strains with defined genetic alterations is measured as a screen for potential anti-cancer activity. Selected strains with alterations in DNA damage repair or cell cycle control were exposed to compounds and growth inhibition was measured relative to vehicle treated controls. The strain used in this assay is cln2 rad14
This is part of a sample that, as a whole, favours compounds with a hit. Of some 79,000 tested, about 15% had one in any assay. Active and inactive are the calls of the source. Rule as the data show it: active = growth inhibition above about 70%; inactive = the rest.
Experimental Endpoint: growth inhibition

Compound	Experimental Endpoint	Endpoint Value
CCn1c2ccccc2c2ccc(N=Cc3ccc4ccccc4c3)cc21	growth inhibition	-14% (inactive)
CC12CCC3c4ccc(Cc5ccc([N+](=O)[O-])cc5)cc4CCC3C1CCC2=O (centres undefined)	growth inhibition	19.7% (inactive)
N#Cc1cn(Cc2ccccc2)c2ccccc2c1=O	growth inhibition	47.9% (inactive)
CC(=O)/C(=C/N1C(=O)CC(=O)NC1=S)C(=O)Nc1ccccc1	growth inhibition	3.85% (inactive)
COc1ccc(C2C3=C(COC3=O)OC(C)(C)Oc3cc4c(cc32)OCO4)cc1 (centres undefined)	growth inhibition	6.5% (inactive)

Query block: growth inhibition lookup needed for COc1ccc(N(C)S(=O)(=O)c2ccccc2)cc1 , thanks.
Result block: 10.8% (inactive)

Query block: growth inhibition lookup needed for Nc1nc(N)nc(SCCO)n1 , thanks.
Result block: -44.8% (inactive)

Query block: growth inhibition lookup needed for C/C=C/Cc1ccc(O)cc1 , thanks.
Result block: -25.4% (inactive)

Query block: growth inhibition lookup needed for O=C(O)CNCc1ccc2c(c1)OCCO2 , thanks.
Result block: -3.35% (inactive)

Query block: growth inhibition lookup needed for CC(=O)OCC1OC(n2cnc(Br)c2[N+](=O)[O-])C(OC(C)=O)C1OC(C)=O (centres undefined) , thanks.
Result block: 14.5% (inactive)

Query block: growth inhibition lookup needed for CCOC(=O)C(=CNC(=S)Nc1ccc(Cl)c(Cl)c1)C(=O)OCC , thanks.
Result block: 45.6% (inactive)

Query block: growth inhibition lookup needed for CCCCOC(=O)CCCCCCC/C=C/C1C=CC(CCCC)C(C#N)C1C#N (centres undefined) , thanks.
Result block: -6.05% (inactive)

Query block: growth inhibition lookup needed for N#CC(C#N)N=Cc1ccncc1 , thanks.
Result block: -12.8% (inactive)

----------
Assay: NCI Yeast Anticancer Drug Screen. Data for the mlh1 rad18 strain (AID 175)
Settings: S. cerevisiae mlh1 rad18 strain growth inhibition; at 50.0 µM; hits give high values
Description: Growth inhibition of yeast strains with defined genetic alterations is measured as a screen for potential anti-cancer activity. Selected strains with alterations in DNA damage repair or cell cycle control were exposed to compounds and growth inhibition was measured relative to vehicle treated controls. The strain used in this assay is mlh1 rad18
This is part of a sample that, as a whole, favours compounds with a hit. Of some 79,000 tested, about 15% had one in any assay.
Label Fulfilled when growth inhibition >= -10%; otherwise Not fulfilled.

Compound	Assigned Class
CC(=O)OC1C(=O)OCC23CCC(C)=CC2OC2CC(OC(=O)/C=C/C=C/C(=O)OCCC1C)C3(C)C21CO1 (configuration not stated)	Not fulfilled
Clc1ccc2cc3ccccc3cc2c1	Not fulfilled
COC(=O)/C=C1\C(=O)N(C(C)=O)c2ccccc21	Fulfilled
COc1ccc(C(O)S(=O)(=O)O)cc1 (configuration not stated)	Fulfilled
CN(C)C1=c2c(=O)n(C)c(=O)n(C)c2=NC2C=CC=CN12 (configuration not stated)	Fulfilled
CCN1C(NN)=NS(=O)(=O)c2ccccc21	Fulfilled

Let's switch to this compound now.
Query block: State whether the measured growth inhibition reaches -10%, counting equality as reaching it, for Ic1ccc(N=Nc2ccccc2)cc1
Result block: Not fulfilled

----------
assay: NCI Yeast Anticancer Drug Screen. Data for the rad50 strain (AID 155);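 also: 0% = growth of vehicle-only cultures of the same strain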; conditions: S. cerevisiae rad50 strain growth inhibition; at 50.0 µM; hits give high values
Compounds without any hit were thinned out: in the full panel of roughly 79,000, 15% have a hit.
List of growth inhibition values.
Number only, in %; omit the unit.

Recorded growth inhibition, per entry:
Compound	Endpoint Value
CCN(CC)c1ccc(N=C2C=C(C(=O)Nc3ccc(S(C)(=O)=O)cc3)C(=O)c3ccccc32)c(C)c1	-15.8
Cc1nn(C(=O)Cc2ccccc2)c2c1C(c1ccc(O)cc1O)SC(N)=N2 (stereo unspecified)	-38.9
Cc1ccccc1-c1nnc(-c2ccc3ccccc3c2)o1	7.3
CC1CCCc2c(CC3CC(=O)NC(=O)C3)nc(N)nc21 (stereo unspecified)	6.75
O=c1oc2ccccc2c(O)c1C(c1cc(OCc2ccccc2)cc(OCc2ccccc2)c1)c1c(O)c2ccccc2oc1=O	-12.1
CCOc1ccccc1NC(=O)C(=O)c1c(O)c2ccc(O)cc2oc1=O	25.7
CN1CCN(CCNNCCN2CCCC(O)C2)CC1 (stereo unspecified)	3.2
Nc1c(Cl)cc(Cl)cc1C(=O)O	-5.05
O=C1C=C(Nc2ccc(Br)cc2)c2ccccc2C1=O	36.3
C=COC(=O)C(Cc1ccccc1)NC(=O)OCc1ccccc1 (stereo unspecified)	-5.2

Switching to the query record.
Query block: growth inhibition lookup needed for Cc1ccc(S(=O)(=O)NC(=O)C2(Br)S(=O)(=O)OCCOS2(=O)=O)cc1 , thanks.
Result block: 1.25

----------
List of growth inhibition values.
test: NCI Yeast Anticancer Drug Screen. Data for the cln2 rad14 strain (AID 165);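 also: 0% = growth equal to vehicle treated cultures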; settings: S. cerevisiae cln2 rad14 strain, at 50.0 µM, hits give high values
The panel holds about 79,000 compounds, 15% with a hit somewhere; the sample as a whole holds those more often.
Number only, in %; omit the unit.

Recorded growth inhibition, per entry:
Compound	Display Unit	growth inhibition
O=[N+]([O-])c1cc(Cl)cc2cc(Br)cnc12	%	3.8
Cc1cc(C)n2ncnc2n1	%	4.15
CCCCOP(=O)(Cc1ccc(Cl)cc1Cl)OCCCC	%	99
Oc1c(Cl)cc(Cl)cc1C=Nc1ccc2c(ccc3c4ccccc4ccc23)c1	%	-41.4
C/C(=N\NC(N)=O)C1CCCc2ccccc21 (configuration not stated)	%	-6.55
Cc1cc(NC(=O)NC(=O)c2ccccc2NC(=O)CN(C)C)ccc1Oc1ncc(Br)cn1	%	-6.2

Query block: growth inhibition lookup needed for O=c1[nH]nc(Cc2ccccc2)n1CCCl , thanks.
Result block: -3.7

----------
assay: NCI Yeast Anticancer Drug Screen. Data for the mlh1 rad18 strain (AID 175); details: S. cerevisiae mlh1 rad18 strain growth inhibition; at 50.0 µM; hits give high values
Compounds without any hit were thinned out: in the full panel of roughly 79,000, 15% have a hit.
Experimental Endpoint: growth inhibition (%)
Number only, in %; omit the unit.

Compound	Display Unit	growth inhibition
COC(=O)C1Cc2ccc(C)cc2C1=O (stereo not given)	%	-4.3
CSC(C(=O)O)c1cc(-c2c(Cl)cccc2Cl)no1 (stereo not given)	%	22.9
Nc1ccc(N2CCN(c3ccc(N)cc3)CC2)cc1	%	15.8
OC(c1ccccc1)(c1c2ccccc2cc2ccccc12)C1CCC1 (stereo not given)	%	-5.65
COc1ccc(S(=O)(=O)N/N=C\c2cc(I)cc(I)c2O)cc1	%	5.1

Query block: growth inhibition lookup needed for CCC1NC(=O)C(NC(=O)c2ncccc2O)C(C)OC(=O)C(c2ccccc2)NC(=O)C2CC(=O)CCN2C(=O)C(Cc2ccccc2)N(C)C(=O)C2CCCN2C1=O (stereo not given) , thanks.
Result block: 0.3

Query block: growth inhibition lookup needed for O=C(NC1CCCCC1)/C(=C\c1ccc(/C=C(/NC(=O)c2ccccc2)C(=O)NC2CCCCC2)cc1)NC(=O)c1ccccc1 , thanks.
Result block: -20.8

----------
test: NCI Yeast Anticancer Drug Screen. Data for the sgs1 mgt1 strain (AID 161);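 also: 0% = growth of cultures given vehicle only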; conditions: S. cerevisiae sgs1 mgt1 strain, at 50.0 µM, hits give high values
Compounds without any hit were thinned out: in the full panel of roughly 79,000, 15% have a hit.
Experimental Endpoint: growth inhibition (%)
Number only, in %; omit the unit.

Recorded growth inhibition, per entry:
Molecule	growth inhibition [%]
On1ccc(N2CCOCC2)cc1=NC1CCCCC1	14.5
CC1CC(C[N+](=O)[O-])CC2(C1)OCCO2 (stereo not drawn)	-28.6
O=C(/C=N\O)c1ccncc1	-30.8
Cc1cc(=O)oc2c1c(C)nn2-c1cccc(Cl)c1	4.05
COc1ccc(N2C(=O)CC(c3c[nH]c4ccccc34)C2=O)cc1 (stereo not drawn)	1.05

Query block: growth inhibition lookup needed for COc1ccc(N2C(=O)C3c4[nH]c5ccc(F)cc5c4C4CCC(C(C)(C)C)CC4C3C2=O)cc1 (stereo not drawn) , thanks.
Result block: 1.55

Query block: growth inhibition lookup needed for O=C(O)c1c(Br)c(Br)c(Br)c(Br)c1C(=O)Nc1ccc(Cl)cc1C(F)(F)F , thanks.
Result block: 11.1

Query block: growth inhibition lookup needed for C=CCC1C(=O)NN=C1C (stereo not drawn) , thanks.
Result block: -10.7

Query block: growth inhibition lookup needed for Cc1ccc(C(=O)c2ccccc2)cc1 , thanks.
Result block: -11.8

Query block: growth inhibition lookup needed for COC(=O)CCSCC(N)C(=O)O (stereo not drawn) , thanks.
Result block: -13.3

Each recorded value in this set is attributed to PubChem BioAssay (NCI).
